From: patent US4645747A

Type: physicochemical
Conditions: with 250 ng/ml unlabelled estriol
METRIC NAME: % Estriol extracted, with 250 ng/ml

1) CCN(CC)CC [Triethyl amine]; 86-90%
2) ClC(Cl)(Cl)Cl [Carbon tetrachloride, carbon tetrachloride]; 38-40%
3) ClCc1ccccc1 [Benzyl chloride]; 76-78%
4) CC(=O)CC(C)C [Methyl isobutyl ketone, methyl isobutyl ketone]; 90-94%
5) CCOC(C)=O [Ethyl acetate, ethyl acetate]; 90-92%

----------
Assay type: physicochemical
Settings: ^125I estriol, tracer only, no unlabelled estriol
METRIC NAME: % Estriol extracted, Tracer only

1) ClCCl; 45-47%
2) ClC(Cl)(Cl)Cl [Carbon tetrachloride, carbon tetrachloride]; 35-38%
3) CC(=O)CC(C)C; 91-94%
4) ClCc1ccccc1 [Benzyl chloride]; 78-80%
5) CCN(CC)CC; 86-91%
6) CCOC(C)=O [Ethyl acetate, ethyl acetate]; 90-94%
